# System: Plasmodium falciparum
# TEST NAME: Antimalarial activity against chloroquine-resistant, pyrimethamine-resistant Plasmodium falciparum K1 after 48 hrs
# Format: functional, organism-based
# TEST CONDITIONS: K1, 48 h
Decide using IC50 alone. Strictly below 20 µg/mL: T. Equal to or above 20 µg/mL: F.

(Q) Record NC/C=C/c1cnc(N)[nH]1 : is its IC50 strictly below 20 µg/mL?
(A) T

(Q) In plain terms, does CC[C@@H](CC[C@@H](C)[C@H]1CC[C@H]2C3=CC[C@H]4C[C@@H](O)CC[C@]4(C)[C@H]3CC[C@]12C)C(C)C come in under 20 µg/mL for IC50?
(A) T

(Q) Determine whether this molecule shows IC50 lower than 20 µg/mL (ties excluded): NCCS(=O)(=O)O
(A) F

Please turn your attention to the following entry.
(Q) Say whether its IC50 is strictly beneath 20 µg/mL. Entry: Nc1ncc(/C=C/CNC(=O)c2cc(Br)c(Br)[nH]2)[nH]1
(A) T

====

Reported log10 of IC50 values for a set of compounds
# TARGET SYSTEM: Enoyl-acyl-carrier protein reductase (Plasmodium falciparum, UniProt Q965D5)
# Sequence (Q965D5 whole entry): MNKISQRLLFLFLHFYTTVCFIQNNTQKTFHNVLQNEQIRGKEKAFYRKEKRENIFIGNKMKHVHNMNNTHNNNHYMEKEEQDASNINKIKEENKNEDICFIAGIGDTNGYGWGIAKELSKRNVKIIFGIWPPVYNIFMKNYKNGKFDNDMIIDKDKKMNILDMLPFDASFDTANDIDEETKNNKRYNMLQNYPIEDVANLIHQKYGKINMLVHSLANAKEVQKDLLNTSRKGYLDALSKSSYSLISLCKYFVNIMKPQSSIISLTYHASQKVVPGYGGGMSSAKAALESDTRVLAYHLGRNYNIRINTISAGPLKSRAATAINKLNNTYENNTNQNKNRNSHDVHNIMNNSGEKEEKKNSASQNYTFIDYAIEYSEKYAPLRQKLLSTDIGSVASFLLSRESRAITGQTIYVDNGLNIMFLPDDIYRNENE
Hey, these are logged values: log10 of IC50, µM being the unit before logging.

In plain terms, CC[C@@H](CC[C@@H](C)[C@H]1CC[C@H]2C3=CC[C@H]4C[C@@H](O)CC[C@]4(C)[C@H]3CC[C@]12C)C(C)C has a documented log10 of IC50 of 1.64

====

# TARGET SYSTEM: Enoyl-acyl-carrier protein reductase (Plasmodium falciparum, UniProt Q965D5)
# TEST NAME: Inhibition of Plasmodium falciparum FabI in presence of variable NADH levels
MEASUREMENT TYPE: pKi
A value of pKi is the negative decimal logarithm of a concentration given in moles per litre.

Entry Nc1ncc(/C=C/CNC(=O)c2cc(Br)c(Br)[nH]2)[nH]1 , Enoyl-acyl-carrier protein reductase (Plasmodium falciparum, UniProt Q965D5) data, pKi value: 6.10

====

# System: Trypanosoma brucei rhodesiense
# TEST NAME: Antitrypanosomal activity against Trypanosoma brucei rhodesiense after 72 hrs by Alamar blue assay
# Format: functional, organism-based
MEASUREMENT TYPE: log10 IC50 (log10 of the value in µg/mL)
Friendly reminder: values = log10 of IC50, unit µg/mL.

Worked examples follow.
Per the record, Nc1nc(N)nc(Nc2ccc([As]3SCC(CO)S3)cc2)n1 (centres undefined) [MELARSOPROL] has log10 IC50 of -2.57

Sample CC[C@@H](CC[C@@H](C)[C@H]1CC[C@H]2C3=CC[C@H]4C[C@@H](O)CC[C@]4(C)[C@H]3CC[C@]12C)C(C)C ; log10 IC50 observed: 1.15

So for NCCS(=O)(=O)O [TAURINE] , the logged log10 IC50 turned out to be 1.92

Continuing:
Entry O=C(O)c1cc(Br)c(Br)[nH]1 , log10 IC50 reported as 1.32

The measured log10 IC50 associated with COC(=O)c1cc(Br)c(Br)[nH]1 reads 1.12

Briefly, log10 IC50 measured for Nc1ncc(/C=C/CNC(=O)c2cc(Br)c(Br)[nH]2)[nH]1 [OROIDIN] : 1.24

What the record says about Nc1ncc(/C=C/CNC(=O)c2cc(Br)c(Br)[nH]2)[nH]1.O=C(O)C(F)(F)F [OROIDIN TFA SALT] : log10 IC50 is 1.09

log10 IC50 in this record for O=C(O)C(F)(F)F.O=C(O)c1cc(Br)c(Br)[nH]1 : 1.40

Value of log10 IC50 reported for the molecule NC/C=C/c1cnc(N)[nH]1 is 0.38

Data origin: ChEMBL document CHEMBL1139805
